Measured values drawn from ChEMBL document CHEMBL3351526 for this set.

Molecular target: Renin (Homo sapiens, UniProt P00797)
Sequence (P00797 whole entry): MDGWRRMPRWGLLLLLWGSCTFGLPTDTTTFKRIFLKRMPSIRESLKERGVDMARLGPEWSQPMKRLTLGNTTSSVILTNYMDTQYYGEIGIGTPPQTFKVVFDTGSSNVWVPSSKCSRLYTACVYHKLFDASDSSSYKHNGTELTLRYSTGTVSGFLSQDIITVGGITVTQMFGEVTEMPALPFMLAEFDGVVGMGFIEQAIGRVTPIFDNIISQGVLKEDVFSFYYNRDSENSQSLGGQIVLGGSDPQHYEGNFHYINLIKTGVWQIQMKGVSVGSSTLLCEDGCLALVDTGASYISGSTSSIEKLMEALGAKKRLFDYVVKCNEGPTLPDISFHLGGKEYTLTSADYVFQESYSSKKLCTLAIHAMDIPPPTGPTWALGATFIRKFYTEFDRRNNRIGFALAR
Assay: Inhibition of human recombinant renin using quenched Dabcyl-g-Abu-IHPFHLVIHT-Edans peptide substrate by fluorescence-based assay
Entries and their IC50

Fill in reported IC50 for this entry: COc1ccc(CC(=O)NC(=N)NCc2ccc(C)cc2)cc1OC
> 30 µM

Assign IC50 to the following record: COc1cc(CNC(=O)[C@@H](CC(C)C)NC(=N)NC(=O)Cc2ccc(OC)c(OC)c2)ccc1F
8.7 µM

Please supply the value of reported IC50 for the item COc1cc(CNC(=O)[C@@H](CC2CCCCC2)NC(=N)NC(=O)Cc2cc(OC)c(OC)cc2Br)ccc1F
> 30 µM

Supply reported IC50 belonging to this compound: COc1ccc(CC(=O)NC(=N)NCc2ccc(N)cc2)cc1OC
> 30 µM
